assay_system: human serum albumin (human) (UniProt P02768)
Sequence (P02768 25-609 limits assumed): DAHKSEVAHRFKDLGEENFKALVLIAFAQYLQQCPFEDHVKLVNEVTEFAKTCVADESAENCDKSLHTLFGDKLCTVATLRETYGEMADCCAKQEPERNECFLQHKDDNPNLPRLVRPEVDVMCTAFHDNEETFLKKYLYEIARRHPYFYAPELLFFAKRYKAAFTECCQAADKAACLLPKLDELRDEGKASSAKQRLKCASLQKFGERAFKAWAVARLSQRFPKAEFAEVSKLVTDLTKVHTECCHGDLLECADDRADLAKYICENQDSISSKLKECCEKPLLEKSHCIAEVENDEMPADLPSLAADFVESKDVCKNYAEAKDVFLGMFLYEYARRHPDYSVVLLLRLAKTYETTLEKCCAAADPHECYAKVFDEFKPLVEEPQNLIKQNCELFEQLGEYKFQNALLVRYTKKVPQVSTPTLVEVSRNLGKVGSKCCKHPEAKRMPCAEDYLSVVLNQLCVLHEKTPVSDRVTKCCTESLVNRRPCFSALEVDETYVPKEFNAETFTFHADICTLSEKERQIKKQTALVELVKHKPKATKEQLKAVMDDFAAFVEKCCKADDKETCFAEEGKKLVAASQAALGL
method_notes: solution ELISA screen (luminescence)
property_name: RLU (RLU)

SEQ ID NO 209 (designed binder, not shown: small tags and cut ends) MLPAPKNLVVSRVTEDSARLSWTAPDAAFDSFYIAYAEPRPDGEAILLQVPGSCRSYDLTGLKPGTEYSVLIHGVKGGLLSSPLTAIFTT | 17800
SEQ ID NO 254 (designed binder, not shown: small tags and cut ends) MLPAPKNLVVSRVTEDSARLSWTAPDAAFDSFYIAYAEPRPDGEAILLAVPGSERSYDLTGLKPGTEYSVLIHGVKGGLLSSPLSAKFTT | 21500
SEQ ID NO 213 (designed binder, not shown: small tags and cut ends) MLPAPKNLVVSRVTEDSARLSWTAPDAAFDSFYIAYAEPRPDGEAILLGVPGSERSYDLTGLKPGTEYSVLIHGVKGGLLSSPLFTT | 70300
SEQ ID NO 261 (designed binder, not shown: small tags and cut ends) MLPAPKNLVVSRVTEDSARLSWTAPDAAFDSFYIAYAEPRPDGEAILLQVPGSERSYDLTGLKPGTEYSVLIHGVKGGLLSSPLIAKFTT | 174000
SEQ ID NO 208 (designed binder, not shown: small tags and cut ends) MLPAPKNLVVSRVTEDSARLSWTAPDAAFDSFFIGYLEPQPPGEAIVLAVPGSERSYDLTGLKPGTEYNVTIQGVKGGFPSYPLVAAFTT | 16400
SEQ ID NO 258 (designed binder, not shown: small tags and cut ends) MLPAPKNLVVSRVTEDSARLSWTAPDAAFDSFYIAYAEPRPDGEAILLEVPGSERSYDLTGLKPGTEYSVLIHGVKGGLLSSPLVAFFTT | 26500
SEQ ID NO 227 (designed binder, not shown: small tags and cut ends) MLPAPKNLVVSRVTEDSARLSWTAPDAAFDSFYIAYAEPRPDGEAIGLRVPGSERSYDLTGLKPGTEYSVLIHGVKGGLLSSPLSAIFTT | 28200

(1) SEQ ID NO 269 (designed binder, not shown: small tags and cut ends) MLPAPKNLVVSRVTEDSARLSWTAPDAAFDSFYIAYAEPRPDGEAIWLDVPGSERSYDLTGLKPGTEYSVLIHGVKGGLLSSPLDAYFTT
(2) SEQ ID NO 214 (designed binder, not shown: small tags and cut ends) MLPAPKNLVVSRVTEDSARLSWTAPDAAFDSFYIAYAEPRPDGEAIGLQVPGSERSYDLTGLKPGTEYSVLIHGVKGGLLSSPLCAEFTT
// select label with min value of measured RLU from [ 1 , 2 ] Respond with the label that goes with your answer.
1
(1: 19900 RLU, 2: 30200 RLU)
